experimental.target: T1, 4H3364-bA
T1 chain: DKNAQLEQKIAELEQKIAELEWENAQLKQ
test.protocol: two-hybrid library CCNG1;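 further: natural log of median RNA to DNA barcode read ratio; higher means stronger binding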
Classification scheme (interaction score): Low (below -0.9), Mid (-0.9 to below -0.4), High (-0.4 or more)

Recorded results for 5 binders are shown here.
# binder, answer.label
data = [
    ("DKIAQLKQKIAELKQKNAELEWENAQLEQ [4H2931-bA]", "Low"),
    ("DEIAQLEQENAELEQKIAELEWKIAQLKQ [4H166-bA]", "Mid"),
    ("DEIAQLEQENAELKQKIAELKWENAQLEQ [4H235-bA]", "Mid"),
    ("DKIAQLEQENAELEQKNAELKWEIAQLEQ [4H2233-bA]", "Low"),
    ("DKIAQLKQENAELKQEIAELEWKNAQLKQ [4H2760-bA]", "High"),
]

Exercise: Category of DEIAQLEQKIAELEQEIAELEWKNAQLKQ [4H264-bA] :
Key: High

Exercise: Another binder to look at: DKIAQLEQKNAELEQEIAELKWENAQLKQ [4H2444-bA]
Key: Mid

Exercise: Another binder to look at: DKIAQLEQKNAELKQENAELEWKIAQLKQ [4H2518-bA]
Key: High

Exercise: Another binder to look at: DKIAQLKQKNAELKQKIAELEWEIAQLEQ [4H3041-bA]
Key: Low

Exercise: Another binder to look at: DKIAQLKQKIAELEQKIAELKWENAQLEQ [4H2859-bA]
Key: High
